Molecular target: T1, IL-11 (Cat. 12225-HNCE, Sino Biological Inc.) (UniProt P20809 22-199, limits assumed)
T1 sequence (looked up): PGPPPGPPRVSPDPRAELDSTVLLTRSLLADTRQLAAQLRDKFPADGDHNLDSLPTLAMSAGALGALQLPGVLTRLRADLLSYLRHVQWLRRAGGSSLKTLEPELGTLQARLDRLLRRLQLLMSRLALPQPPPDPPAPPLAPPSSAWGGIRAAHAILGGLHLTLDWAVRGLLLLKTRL
Assay: cell-based or functional assay
Each entry below carries its recorded Blocking activity (IC50), STAT3-luc reporter.
Field format: number, assumed µg/mL, no unit text.

Look over these answered cases.
hz18A10-VHm13 + hz18A10-VLm19 (antibody, V domains shown, Constant regions not restated for this antibody) VH: EVQLVQSGAEVKKPGASVKVSCKASGYTFTHYEMDWVRQAPGQGLEWMGTIYPGNGDTSYNQKFKGRVTMTRDTSTSTVYMELSSLRSEDTAVYYCARGDLYALDYWGQGTLVTVSS VL: DIQMTQSPSSLSASVGDRVTITCKASQSVYRDVAWYQQKPGKAPKLLIYSASNRYTGVPSRFSGSGSGTDFTFTISSLQPEDIATYYCQHDYSSPYTFGQGTKLEIK    0.338
hz8C8-VHm1 + hz8C8-VLm3 (antibody, human IgG1, kappa, V domains shown, human IgG1 constant regions) VH: EVQLVESGGGLVQPGGSLRLSCAASGFTFSSFGMHWVRQAPGKGLEWVAYITPGSNTIYYADTVKGRFTISRDNAKNSLYLQMNSLRAEDTAVYYCAREYYSYDEGFAYWGQGTLVTVSS VL: EIVLTQSPATLSLSPGERATLSCSVSSLISSNYLHWYQQKPGQAPRLLIYRTSNLASGIPARFSGSGSGTDFTLTISSLEPEDFAVYYCQQGVDVPFTFGQGTKLEIKR    0.125
hz18A10-VHm19 + hz18A10-VLm19 (antibody, human IgG1, kappa, V domains shown, named hz18A10m19; also called hz18A10m19) VH: EVQLVQSGAEVKKPGASVKVSCKASGYTFTHYNMDWVRQAPGQGLEWMGTIYPGNADTSYNQKFKGRVTMTRDTSTSTVYMELSSLRSEDTAVYYCARGDLYALDYWGQGTLVTVSS VL: DIQMTQSPSSLSASVGDRVTITCKASQSVYRDVAWYQQKPGKAPKLLIYSASNRYTGVPSRFSGSGSGTDFTFTISSLQPEDIATYYCQHDYSSPYTFGQGTKLEIKR    0.13
hz8C8-VHm1-m1 + hz8C8-VLm7 (antibody, human IgG1, kappa, V domains shown, human IgG1 constant regions) VH: EVQLVESGGGLVQPGGSLRLSCAASGFTFSSYGMHWVRQAPGKGLEWVAYITPGSNTIYYADTVKGRFTISRDNAKNSLYLQMNSLRAEDTAVYYCAREYYSYDEGFAYWGQGTLVTVSS VL: EIVLTQSPATLSLSPGERATLSCSVSDLIPSQYLHWYQQKPGQAPRLLIYRTSNLASGIPARFSGSGSGTDFTLTISSLEPEDFAVYYCQQGVDVPFTFGQGTKLEIKR    0.046

Input hz18A10-VHm18 + hz18A10-VLm19 (antibody, V domains shown, Constant regions not restated for this antibody) VH: EVQLVQSGAEVKKPGASVKVSCKASGYTFTHYNMDWVRQAPGQGLEWMGTIYPGEGDTSYNQKFKGRVTMTRDTSTSTVYMELSSLRSEDTAVYYCARGDLYALDYWGQGTLVTVSS VL: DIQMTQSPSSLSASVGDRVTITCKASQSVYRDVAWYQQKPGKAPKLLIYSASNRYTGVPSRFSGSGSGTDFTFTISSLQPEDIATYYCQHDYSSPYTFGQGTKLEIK . Output Blocking activity (IC50), STAT3-luc reporter: 0.79

# binder hz18A10-VHm2 + hz18A10-VLm11 (antibody, V domains shown, Constant regions not restated for this antibody) VH: EVQLVQSGAEVKKPGASVKVSCKASGYTFTTYNMDWVRQAPGQGLEWMGTIYPGNGDTSYNQKFKGRVTMTRDTSTSTVYMELSSLRSEDTAVYYCARGDLHYLDYWGQGTLVTVSS VL: DIQMTQSPSSLSASVGDRVTITCKASQSVSNDVAWYQQKPGKAPKLLIYRASNRYTGVPSRFSGSGSGTDFTFTISSLQPEDIATYYCQHDYSSPYTFGQGTKLEIK ; its Blocking activity (IC50), STAT3-luc reporter = 9.46
